Measured target: PIM1 (Homo sapiens (Human))
Assay protocol: biochemical
Format: biochemical
Assay context: 20 pM PIM1, 1 μM FAM-peptide, 10 μM ATP, 90 minutes at room temperature; read-out: PIM1 LC3K (KI)
Endpoint: Ki (pM)

[[record]]
compound = "Cn1ncc(NC(=O)c2csc(-c3cnn(C4CC4)c3)n2)c1[C@@H]1CC[C@@H](N)[C@H](F)CO1 [Example 235]"
measured_target = "PIM1 (Homo sapiens (Human))"
endpoint = "Ki"
recorded_result = 68


a = COC1(c2cc(F)c(-c3nc(C(=O)Nc4cnn(C)c4[C@@H]4CC[C@@H](N)[C@H](F)CO4)ccc3F)c(F)c2)COC1 [Example 202]
b = Cn1ncc(NC(=O)c2nc(-c3c(F)cccc3C(F)(F)F)sc2N)c1[C@@H]1CC[C@@H](N)[C@H](F)CO1 [Example 331]
c = COCCOc1cc(F)c(-c2nc(C(=O)Nc3cnn(C)c3[C@@H]3CC[C@@H](N)[C@@H](F)CO3)ccc2F)c(F)c1 [Example 189]
## Task Write the entries in order, lowest recorded Ki first. Answer by writing out the labels in the requested order.
## Result c, a, b
(c: 25 pM, a: 56 pM, b: 104 pM)

###

Tested on: MM1.S (multiple myeloma) cells
Assay protocol: In vitro cell proliferation, MM1.S multiple myeloma cells;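 further: cells cultured in RPMI with 10% FBS and 2 mM L-Glutamine, seeded in 384-well plates, exposed to compound, cell viability measured by luminescence after CellTiter-Glo addition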
Format: cell-based
Assay context: Homo sapiens, MM1.S, 72 h, MM1.S cells, 72 hours, CELL TITER GLO; read-out: Prolif MM1S ATP (EC50)
Endpoint: EC50 (µM)

Known results for compounds:
[[record]]
compound = "Cn1ncc(NC(=O)c2csc(-c3c(F)cccc3F)n2)c1[C@@H]1CC[C@@H](N)[C@H](F)CO1 [Example 321]"
endpoint = "EC50"
recorded_result = 0.385

[[record]]
compound = "Cn1ncc(NC(=O)c2csc(-c3c(F)ccc(C(F)F)c3F)n2)c1[C@@H]1CC[C@@H](N)[C@H](F)CO1 [Example 377]"
endpoint = "EC50"
recorded_result = 4.2

[[record]]
compound = "Cn1ncc(NC(=O)c2nc(-c3ccccc3)sc2N)c1[C@@H]1CC[C@@H](N)[C@H](F)CO1 [Example 320]"
endpoint = "EC50"
recorded_result = 0.187

[[record]]
compound = "Cn1ncc(NC(=O)c2csc(-c3c(F)cccc3F)n2)c1[C@@H]1CC[C@@H](N)[C@@H](F)CO1 [Example 319]"
endpoint = "EC50"
recorded_result = 0.875


1 = Cn1ncc(NC(=O)c2csc(-c3c(F)cc(F)cc3F)n2)c1[C@@H]1CC[C@@H](N)[C@H](F)CO1 [Example 364]
2 = Cn1ncc(NC(=O)c2csc(-c3cc(=O)n(C)cc3F)n2)c1[C@@H]1CC[C@@H](N)[C@H](F)CO1 [Example 387]
## Task Could you tell me which of 1 and 2 has the lower EC50 reading? // caller expects the label of the chosen entry
## Result 1

A = Cn1ncc(NC(=O)c2csc(-c3c(F)cc([C@H]4CCCO4)cc3F)n2)c1[C@@H]1CC[C@@H](N)[C@H](F)CO1 (single isomer, unassigned) [Example 380]
B = CO[C@@H]1CO[C@H](c2c(NC(=O)c3csc(-c4c(F)cccc4F)n3)cnn2C)CC[C@H]1N [Example 347]
## Task Compare the recorded EC50 of A and B ; state which is larger. Write the label of whichever entry you select.
## Result B
(B: 3.3 µM, A: 1.7 µM)

P = CC[C@@H]1CC(N)CC[C@H](c2c(NC(=O)c3nc(-c4c(F)cccc4F)sc3N)cnn2C)O1 (stereo partly drawn) [Example 112]
Q = Cn1ncc(NC(=O)c2nc(-c3cccc(F)c3F)sc2N)c1[C@@H]1CC[C@@H](N)[C@H](F)CO1 [Example 324]
## Task For P and Q , which recorded EC50 is lower? State your choice using its label.
## Result Q

A = Cn1ncc(NC(=O)c2csc(-c3c(F)ccc(S(C)(=O)=O)c3F)n2)c1[C@@H]1CC[C@@H](N)[C@H](F)CO1 [Example 360]
B = Cn1ncc(NC(=O)c2csc(-c3n[nH]c4c3CCC(C)(C)C4)n2)c1[C@@H]1CC[C@@H](N)[C@H](F)CO1 [Example 373]
## Task // select label with min value of measured EC50 from [ A , B ] Answer by quoting the chosen item's label.
## Result B

1 = C[C@H]1O[C@@H](c2c(NC(=O)c3csc(-c4c(F)cccc4F)n3)cnn2C)C[C@@H](N)[C@]1(C)O (single isomer, unassigned) [Example 341]
2 = CN(C)c1ccc(-c2nc(C(=O)Nc3cnn(C)c3[C@@H]3CC[C@@H](N)[C@H](F)CO3)cs2)cn1 [Example 385]
3 = Cn1ncc(NC(=O)c2nc(-c3c(F)cccc3F)sc2N)c1C1CC[C@H](N)[C@H](F)CO1 (stereo partly drawn) [Example 131]
4 = Cc1sc(-c2c(F)cccc2F)nc1C(=O)Nc1cnn(C)c1[C@@H]1CC[C@@H](N)[C@H](F)CO1 [Example 370]
5 = CC(C)Oc1ncccc1-c1nc(C(=O)Nc2cnn(C)c2[C@@H]2CC[C@@H](N)[C@H](F)CO2)cs1 [Example 384]
## Task Rank the 5 compounds: largest EC50 first, smallest last. // list labels; follow requested order
## Result 3, 1, 5, 4, 2

a = COc1ccc(F)c(-c2nc(C(=O)Nc3cnn(C)c3[C@@H]3CC[C@@H](N)[C@H](F)CO3)cs2)c1 [Example 356]
b = Cn1ncc(NC(=O)c2nc(-c3ccccc3C(F)(F)F)sc2N)c1[C@@H]1CC[C@@H](N)[C@H](F)CO1 [Example 323]
## Task Hi, I'm comparing a with b and wondering which one has the bigger number for EC50. Any idea? Label of pick, please.
## Result b
(b: 10 µM, a: 1.4 µM)

A = Cn1ncc(NC(=O)c2nc(-c3c(F)cccc3F)sc2N)c1C1CC[C@@H](N)[C@@H](F)CO1 (stereo partly drawn) [Example 129]
B = Cn1ncc(NC(=O)c2csc(-c3ccccc3)n2)c1[C@@H]1CC[C@@H](N)[C@H](F)CO1 [Example 327]
C = Cn1ncc(NC(=O)c2nc(-c3ccccc3F)sc2N)c1[C@@H]1CC[C@@H](N)[C@H](F)CO1 [Example 317]
D = CO[C@@H]1CO[C@H](c2c(NC(=O)c3csc(-c4c(F)cc(C)cc4F)n3)cnn2C)CC[C@H]1N [Example 355]
## Task Arrange the 4 compounds by rising EC50, starting with the smallest. Present the labels in the sequence the task asks for.
## Result C, A, B, D
(C: 0.0345 µM, A: 0.109 µM, B: 0.648 µM, D: 1.6 µM)

P = Cn1ncc(NC(=O)c2csc(-c3c(F)cccc3F)n2)c1[C@H]1CC[C@H](N)[C@H](O)CO1 [Example 351]
Q = C[C@H]1O[C@@H](c2c(NC(=O)c3ccc(F)c(-c4c(F)cccc4F)n3)cnn2C)C[C@@H](N)[C@]1(C)O (single isomer, unassigned) [Example 343]
## Task Higher EC50: P or Q ? Please indicate the selected item by its label.
## Result Q

###

Measured target: PIM1 (Homo sapiens (Human), UniProt P11309)
Sequence (P11309 whole entry): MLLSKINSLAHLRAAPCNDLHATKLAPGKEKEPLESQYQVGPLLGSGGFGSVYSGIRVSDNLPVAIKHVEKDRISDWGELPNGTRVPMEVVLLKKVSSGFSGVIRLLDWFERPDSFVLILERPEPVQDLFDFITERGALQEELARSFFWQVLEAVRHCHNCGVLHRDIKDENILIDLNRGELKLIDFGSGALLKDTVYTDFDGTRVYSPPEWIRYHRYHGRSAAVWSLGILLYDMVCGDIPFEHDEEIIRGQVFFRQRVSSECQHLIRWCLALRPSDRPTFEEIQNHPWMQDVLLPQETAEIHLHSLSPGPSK
Assay protocol: biochemical
Type: biochemical
Assay context: 20 pM PIM1, 1 μM FAM-peptide, 10 μM ATP, 90 minutes at room temperature; read-out: PIM1 LC3K (KI)
pKi: −log10 of the molar value.
Endpoint: pKi

Please review the entries below; each comes with its answer.
[[record]]
molecule = "CO[C@H]1CO[C@H](c2c(NC(=O)c3nc(-c4c(C)cccc4F)sc3N)cnn2C)CC[C@H]1N"
recorded_result = 10.28

[[record]]
molecule = "Cn1ncc(NC(=O)c2nc(-c3cccc(F)c3C(F)(F)F)sc2N)c1[C@@H]1CC[C@@H](N)[C@H](F)CO1"
recorded_result = 9.73

[[record]]
molecule = "Cn1ncc(NC(=O)c2nc(-c3c(F)cccc3F)sc2N)c1C12CCC(O)C(CC1)O2 (single isomer, unassigned) [Example 110]"
recorded_result = 10.77


I = Cn1ncc(NC(=O)c2nc(-c3c(F)cccc3F)sc2N)c1[C@H]1CC[C@H](CN)O1
II = Cn1ncc(NC(=O)c2nc(-c3c(F)cccc3F)sc2N)c1[C@H]1C[C@@H](O)CCO1
III = CCOc1ccc(F)c(-c2nc(C(=O)Nc3cnn(C)c3[C@@H]3CC[C@@H](N)[C@H](F)CO3)cs2)c1F
IV = CC(C)Oc1ncccc1-c1nc(C(=O)Nc2cnn(C)c2[C@@H]2CC[C@@H](N)[C@H](F)CO2)cs1
## Task Which order do these items take when sorted by rising pKi? List them. When ranking, write the labels in the order the request describes.
## Result IV, II, I, III

###

Measured target: PIM1 (Homo sapiens (Human))
Assay protocol: biochemical
Type: biochemical
Assay context: 20 pM PIM1, 1 μM FAM-peptide, 10 μM ATP, 90 minutes at room temperature; read-out: PIM1 LC3K (KI)
pKi: −log10 of the molar value.
Endpoint: pKi

Example results:
[[record]]
molecule = "C[C@@H](O)c1cc(F)c(-c2nc(C(=O)Nc3cnn(C)c3[C@@H]3CC[C@@H](N)[C@H](F)CO3)cs2)c(F)c1"
recorded_result = 10.85

[[record]]
molecule = "Cn1ncc(NC(=O)c2csc(-c3cccc(Cl)c3F)n2)c1[C@@H]1CC[C@@H](N)[C@@H](F)CO1"
recorded_result = 10.19

[[record]]
molecule = "Cn1ncc(NC(=O)c2nc(-c3c(F)cccc3F)sc2N)c1C1CC(F)(F)CC(N)CO1 (stereo not shown) [Example 133]"
recorded_result = 10.12

[[record]]
molecule = "CO[C@H]1CCC(c2c(NC(=O)c3nc(-c4c(F)cccc4F)sc3N)cnn2C)OC[C@@H]1N (stereo partly shown)"
recorded_result = 9.90

[[record]]
molecule = "CC[C@@H]1C[C@H](N)CC[C@H](c2c(NC(=O)c3nc(-c4c(F)cccc4F)sc3N)cnn2C)O1"
recorded_result = 8.46

[[record]]
molecule = "Cn1ncc(NC(=O)c2csc(-c3cncc(F)c3)n2)c1[C@@H]1CC[C@@H](N)[C@@H](F)CO1"
recorded_result = 8.24

[[record]]
molecule = "Cn1ncc(NC(=O)c2nc(C3=CCCC3)sc2N)c1[C@@H]1CC[C@@H](N)[C@H](F)CO1"
recorded_result = 10.52

[[record]]
molecule = "Cn1ncc(NC(=O)c2ccc(F)c(-c3c(F)cc(C(O)(CO)CO)cc3F)n2)c1[C@@H]1CC[C@@H](N)[C@@H](F)CO1"
recorded_result = 9.79

[[record]]
molecule = "Cn1ncc(NC(=O)c2csc(-c3c(F)cc4c(c3F)OCC4)n2)c1[C@@H]1CC[C@@H](N)[C@H](F)CO1"
recorded_result = 10.62

[[record]]
molecule = "Cn1ncc(NC(=O)c2csc(-c3c(F)cccc3F)n2)c1[C@@H]1CC[C@@H](N)[C@@H](F)CO1"
recorded_result = 10.42


1 = CO[C@H]1CO[C@H](c2c(NC(=O)c3nc(-c4ccccc4C(F)(F)F)sc3N)cnn2C)CC[C@H]1N
2 = Cn1ncc(NC(=O)c2nc(-c3c(F)cccc3F)sc2N)c1C1CCC(N)COC1 (stereo not shown) [Example 147]
## Task Which entry shows the lesser value of pKi here, 1 or 2 ? Respond using the label that marks the chosen record.
## Result 2
(2: 9.85, 1: 10.08)

I = CN(C)c1ccc(-c2nc(C(=O)Nc3cnn(C)c3[C@@H]3CC[C@@H](N)[C@H](F)CO3)cs2)cn1
II = CO[C@H]1CO[C@H](c2c(NC(=O)c3nc(-c4cccc(F)c4F)sc3N)cnn2C)CC[C@H]1N
III = Cn1ncc(NC(=O)c2ccc(F)c(-c3c(F)cc(C4(O)CC4)cc3F)n2)c1[C@@H]1CC[C@@H](N)[C@H](F)CO1
IV = Cn1ncc(NC(=O)c2nc(-c3cccc(F)c3F)sc2N)c1[C@@H]1CC[C@@H](N)[C@@H](F)CO1
## Task Output the entries ranked by pKi from maximum down to minimum. To answer, arrange all of the labels according to the requested order.
## Result III, IV, II, I
(III: 12.00, IV: 11.40, II: 10.30, I: 9.70)

A = Cn1ncc(NC(=O)c2csc(-c3cccc(F)c3Cl)n2)c1[C@@H]1CC[C@@H](N)[C@@H](F)CO1
B = Cn1ncc(NC(=O)c2nc(-c3c(F)cccc3F)sc2N)c1[C@]12CC[C@H](O1)[C@@H](O)CC2
## Task Parameter metric = pKi. Return the lower-valued option from A and B . Pick one and reply with its label.
## Result A
(A: 9.88, B: 10.49)

A = Cn1ncc(NC(=O)c2csc(-c3ccncc3F)n2)c1[C@@H]1CC[C@@H](N)[C@H](F)CO1 [Example 300]
B = CCC(=O)c1cc(F)c(-c2nc(C(=O)Nc3cnn(C)c3[C@@H]3CC[C@@H](N)[C@H](F)CO3)ccc2F)c(F)c1
## Task Could you determine which record has the numerically smaller pKi? Candidates: A and B Write down the label of the entry you select.
## Result A
(A: 9.87, B: 10.47)
